All values here come from patent US20170067045A1.

# IC50 of inhibition of kallikrein (Z-Phe-Arg-AMC substrate, fluorescence) annotations
Biological target: kallikrein (UniProt P03952 20-638, limits assumed)
Sequence (P03952 20-638 limits assumed): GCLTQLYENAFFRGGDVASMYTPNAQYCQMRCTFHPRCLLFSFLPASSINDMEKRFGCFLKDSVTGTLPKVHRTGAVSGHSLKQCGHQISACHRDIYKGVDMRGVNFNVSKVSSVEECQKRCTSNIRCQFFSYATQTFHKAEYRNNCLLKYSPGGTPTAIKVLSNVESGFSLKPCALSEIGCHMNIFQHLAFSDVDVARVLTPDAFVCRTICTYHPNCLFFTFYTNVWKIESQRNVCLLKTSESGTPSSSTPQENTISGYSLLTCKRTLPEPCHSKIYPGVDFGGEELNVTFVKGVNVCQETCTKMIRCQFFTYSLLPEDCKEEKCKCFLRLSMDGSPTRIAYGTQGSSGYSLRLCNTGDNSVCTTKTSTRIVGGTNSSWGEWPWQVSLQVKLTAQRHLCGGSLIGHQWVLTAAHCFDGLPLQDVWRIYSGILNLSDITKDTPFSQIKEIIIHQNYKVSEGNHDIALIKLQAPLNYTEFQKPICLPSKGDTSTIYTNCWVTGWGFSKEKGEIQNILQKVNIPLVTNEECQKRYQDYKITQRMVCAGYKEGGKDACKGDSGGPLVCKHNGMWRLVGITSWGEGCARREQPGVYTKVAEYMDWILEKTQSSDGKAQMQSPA
Assay: cell-based or functional assay
*1 amine or outer side, *2 acyl side, *3 side chain or, on linkers, in order; H or OH if unused. Bridges are numbered along the chain shown (N, C = ends). Where no end group is shown, it is not given here. tris(bromomethyl)mesitylene = scaffold as named in the source, Cc1c(C[*:1])c(C)c(C[*:3])c(C)c1C[*:2]; TBMB = c1c(C[*:1])cc(C[*:3])cc1C[*:2]
# number only, unit nM dropped from output

Return the recorded IC50 of inhibition of kallikrein (Z-Phe-Arg-AMC substrate, fluorescence) value; entry: ACSDRFRNCPADEALCG (linker 2-9-16 via TBMB) [PK15-TBMB]
13

Return the recorded IC50 of inhibition of kallikrein (Z-Phe-Arg-AMC substrate, fluorescence) value; entry: ACSDRFRNCPADEALCG (linker 2-9-16 via TBMB; also: thioether links to TBMB oxidised to sulphones) [oxidized PK15-TBMB (sulphone)]
1300

Return the recorded IC50 of inhibition of kallikrein (Z-Phe-Arg-AMC substrate, fluorescence) value; entry: ACSDRFRNCPADEALCG (linker 2-9-16 via tris(bromomethyl)mesitylene) [PK15 conjugated with tris(bromomethyl)mesitylene]
150
